target: UniProt:P21554; assay: Competition binding with [3H]SR141716A, wild-type CB1 membranes
MEASURED_QUANTITY: pKi
# reply with the number alone; pKi is -log10 of concentration in mol/L

Check out these entries, answers already filled in.
MOLECULE | pKi
CS(=O)(=O)N(c1cc(F)cc(F)c1)C1CN(C(c2ccc(Cl)cc2)c2ccc(Cl)cc2)C1 [AVE1625] | 9.19
N#Cc1c(Oc2cccc(OS(=O)(=O)CCCC(F)(F)F)c2)cccc1C(F)(F)F [BAY593074] | 6.60

The record that follows has no pKi shown yet.
The molecule listed as CC1=CC[C@@H]2[C@@H](C1)c1ccc(CC#CCCCNS(C)(=O)=O)cc1OC2(C)C [O-2050] has a reported pKi of 8.47

----------
target: human CB1 P269A mutant receptor (Homo sapiens, UniProt P21554, P269A); test: biochemical; type: binding
Sequence (P21554 whole entry P269A): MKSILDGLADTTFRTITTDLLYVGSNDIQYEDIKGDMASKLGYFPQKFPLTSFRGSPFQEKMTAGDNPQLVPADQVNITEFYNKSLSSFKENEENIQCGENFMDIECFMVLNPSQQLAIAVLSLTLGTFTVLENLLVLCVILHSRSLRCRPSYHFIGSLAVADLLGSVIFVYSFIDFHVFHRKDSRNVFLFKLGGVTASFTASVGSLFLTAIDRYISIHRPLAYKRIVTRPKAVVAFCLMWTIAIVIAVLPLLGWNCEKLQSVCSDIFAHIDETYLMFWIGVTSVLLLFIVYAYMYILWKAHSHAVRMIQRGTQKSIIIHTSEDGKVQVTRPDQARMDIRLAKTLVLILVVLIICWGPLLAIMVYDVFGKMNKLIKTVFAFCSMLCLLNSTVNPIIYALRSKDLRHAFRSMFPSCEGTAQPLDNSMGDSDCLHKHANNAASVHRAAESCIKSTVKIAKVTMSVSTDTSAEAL
MEASURED_QUANTITY: Ki (nM)
Please give a number only; it is taken to be in nM.

As a guide, the following entries are already answered.
COMPOUND | MEASURED_QUANTITY | UNIT_ANNOTATION | VALUE
CCCCC(C)c1ccc(-c2c(-c3ccc(Cl)cc3Cl)nn(N3CCCCC3)c2C)cc1 (stereo not shown) | Ki | nM | 0.96
CS(=O)(=O)N(c1cc(F)cc(F)c1)C1CN(C(c2ccc(Cl)cc2)c2ccc(Cl)cc2)C1 | Ki | nM | 0.88

// Ki value for "CCCCCc1ccc(-n2nc(C(=O)NN3CCCCC3)c(C)c2-c2ccc(Cl)cc2)cc1" : 74.7

Short answer for "CC1=CC[C@@H]2[C@@H](C1)c1ccc(CC#CCCCNS(C)(=O)=O)cc1OC2(C)C" : Ki was 68.6

----------
target: human CB1 I271A mutant receptor (Homo sapiens, UniProt P21554, I271A); experiment: biochemical; assay type: binding
Sequence (P21554 whole entry I271A): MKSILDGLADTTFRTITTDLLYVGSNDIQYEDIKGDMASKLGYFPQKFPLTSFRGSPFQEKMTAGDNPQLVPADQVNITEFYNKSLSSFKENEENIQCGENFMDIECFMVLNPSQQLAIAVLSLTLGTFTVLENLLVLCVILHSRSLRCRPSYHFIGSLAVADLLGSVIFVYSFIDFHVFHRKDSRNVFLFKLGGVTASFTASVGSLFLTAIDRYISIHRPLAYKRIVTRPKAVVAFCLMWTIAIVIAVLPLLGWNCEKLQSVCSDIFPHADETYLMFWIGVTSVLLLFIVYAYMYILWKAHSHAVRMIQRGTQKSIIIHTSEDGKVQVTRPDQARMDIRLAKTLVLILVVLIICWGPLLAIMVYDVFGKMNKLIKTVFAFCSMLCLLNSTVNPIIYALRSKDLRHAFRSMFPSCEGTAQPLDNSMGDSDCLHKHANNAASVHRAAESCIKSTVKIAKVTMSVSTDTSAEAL
Items are presented alongside their recorded Ki.
Please state the figure in nM; there is no need to write the unit.

COMPOUND | MEASURED_QUANTITY | VALUE
N#Cc1c(Oc2cccc(OS(=O)(=O)CCCC(F)(F)F)c2)cccc1C(F)(F)F [BAY593074] | Ki | 2870
CCCCCc1ccc(-n2nc(C(=O)NN3CCCCC3)c(C)c2-c2ccc(Cl)cc2)cc1 [O-1255] | Ki | 460
CCCCC(C)(C)c1cc(O)c2c(c1)OC(C)(C)C1CC=C(C)CC21 (stereo not shown) [JWH061] | Ki | 773

In the following, a different compound is considered.
Short answer for CS(=O)(=O)N(c1cc(F)cc(F)c1)C1CN(C(c2ccc(Cl)cc2)c2ccc(Cl)cc2)C1 [AVE1625] : Ki was 1.8

----------
Reported loss in affinity relative to wild-type receptor is given for each of the following compounds.
target: human CB1 F268W mutant receptor (Homo sapiens, UniProt P21554, F268W); test: biochemical; type: binding; conditions: F268W receptor vs WT
Sequence (P21554 whole entry F268W): as the sequence (P21554 whole entry I271A) above, with F268W, A271I counted along it

Example results:
INPUT_SMILES | VALUE
CCCCCc1ccc(-n2nc(C(=O)NN3CCCCC3)c(C)c2-c2ccc(Cl)cc2)cc1 | 4 fold
CC1=CC[C@@H]2[C@@H](C1)c1ccc(CC#CCCCNS(C)(=O)=O)cc1OC2(C)C | 44 fold
O=C(NN1CCCCC1)c1nn(-c2ccc(Cl)cc2Cl)c2c1CCCc1cc(Cl)ccc1-2 | 5 fold

Then there is this compound:
Form: compound = "CS(=O)(=O)N(c1cc(F)cc(F)c1)C1CN(C(c2ccc(Cl)cc2)c2ccc(Cl)cc2)C1" ; loss in affinity relative to wild-type receptor = 3 fold

----------
molecular target: human CB1 P269A mutant receptor (Homo sapiens, UniProt P21554, P269A); experiment: biochemical; assay type: binding
MEASURED_QUANTITY: Ki (nM)
Write the number in nM without appending the unit.

MOLECULE | TESTED_TARGET | Ki, nM
CC1=CCC2C(C1)c1c(O)cc(C(C)(C)C)cc1OC2(C)C (centres unmarked) [JWH179] | human CB1 P269A mutant receptor (Homo sapiens, UniProt P21554, P269A) | 798
N#Cc1c(Oc2cccc(OS(=O)(=O)CCCC(F)(F)F)c2)cccc1C(F)(F)F [BAY593074] | human CB1 P269A mutant receptor (Homo sapiens, UniProt P21554, P269A) | 341
O=C(NN1CCCCC1)c1nn(-c2ccc(Cl)cc2Cl)c2c1CCCc1cc(Cl)ccc1-2 [NESS0327] | human CB1 P269A mutant receptor (Homo sapiens, UniProt P21554, P269A) | 3
CCCCCc1ccc(-c2c(C)c(C(=O)NN3CCCCC3)nn2-c2ccc(Cl)cc2Cl)cc1 [O-1302] | human CB1 P269A mutant receptor (Homo sapiens, UniProt P21554, P269A) | 1.1

As a next step, examine the molecule that follows.
For CCCCC(C)(C)c1cc(O)c2c(c1)OC(C)(C)C1CC=C(C)CC21 (centres unmarked) [JWH061] the molecule record lists Ki as 1730
